target.or.test.system: c-Src SH2;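 further: peptide library displayed on the E. coli surface as eCPX fusions, selected cells deep-sequenced, score is each peptide's frequency after selection divided by its frequency in the input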
assay.explanation: SH2 binding enrichment of the phosphorylated peptide, bacterial display (enrichment ratio); higher = better substrate or ligand; peptides without Tyr show the background
Some sequences, each annotated with its measured SH2 binding enrichment.
Lab note: jot the number down without any unit.

As a guide, the following entries are already answered.
{"columns": ["entry.sequence", "SH2 binding enrichment"],
 "data": [
  ["SIKNKYVTALY [KCNH2_Y611_D609N]", 0.381],
  ["DVFRQYASLTG [GANAB_Y379]", 2.5],
  ["AKRKGYDMQVD [NEB_Y2770_R2773Q]", 0.533]
]}

Which measured SH2 binding enrichment value corresponds to GGSTFYIDTNA [ACTL6A_Y69_P66S_YF] ? 0.562

So what does the record say about SH2 binding enrichment for DTNIAYWLHPR [POMT1_Y581] ? 0.561

# SH2 binding enrichment lookup, item TGEKPYECVQC [ZNF24_Y335] 3.11

Quick check: SH2 binding enrichment of GRQGIYTKNER [GPR143_Y231_E233K] ? 0.493

GET /values?readout=SH2 binding enrichment&item= CNRADYSKLAP [GNE_Y22] 1.18

====

target.or.test.system: EPHB1 (UniProt P54762)
Sequence (P54762 whole entry, looked up): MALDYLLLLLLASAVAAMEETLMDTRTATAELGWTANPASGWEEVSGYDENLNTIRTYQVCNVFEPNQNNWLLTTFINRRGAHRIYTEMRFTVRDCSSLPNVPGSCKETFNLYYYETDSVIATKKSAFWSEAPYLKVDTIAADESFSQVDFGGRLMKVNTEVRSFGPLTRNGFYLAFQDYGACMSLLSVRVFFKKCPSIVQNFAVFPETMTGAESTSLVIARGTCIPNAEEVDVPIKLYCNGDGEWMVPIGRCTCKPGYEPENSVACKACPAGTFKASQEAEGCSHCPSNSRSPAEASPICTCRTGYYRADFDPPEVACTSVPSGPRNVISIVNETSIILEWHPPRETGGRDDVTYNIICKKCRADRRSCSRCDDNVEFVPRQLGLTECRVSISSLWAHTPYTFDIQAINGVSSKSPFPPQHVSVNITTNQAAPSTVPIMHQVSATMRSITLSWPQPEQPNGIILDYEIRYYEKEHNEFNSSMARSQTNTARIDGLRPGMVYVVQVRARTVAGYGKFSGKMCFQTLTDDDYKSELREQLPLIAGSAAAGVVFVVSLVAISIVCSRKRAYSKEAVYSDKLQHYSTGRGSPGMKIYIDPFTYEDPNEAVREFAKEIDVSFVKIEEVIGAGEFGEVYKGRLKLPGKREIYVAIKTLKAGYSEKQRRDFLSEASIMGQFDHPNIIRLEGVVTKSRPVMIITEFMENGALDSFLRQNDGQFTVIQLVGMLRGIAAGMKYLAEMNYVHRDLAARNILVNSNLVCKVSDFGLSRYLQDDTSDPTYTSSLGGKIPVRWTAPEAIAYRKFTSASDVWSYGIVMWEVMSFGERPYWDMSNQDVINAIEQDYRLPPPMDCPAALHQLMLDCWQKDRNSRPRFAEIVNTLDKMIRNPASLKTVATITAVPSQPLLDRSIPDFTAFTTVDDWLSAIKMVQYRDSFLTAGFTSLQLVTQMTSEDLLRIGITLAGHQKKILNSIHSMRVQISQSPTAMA
assay.explanation: phosphorylation enrichment, bacterial display (enrichment ratio); higher = better substrate or ligand; peptides without Tyr show the background
# phosphorylation enrichment annotations
Form field (numeric): enter value without unit.

Use these answered entries as a reference point.
{"columns": ["entry.sequence", "phosphorylation enrichment"],
 "data": [
  ["GFEVVYMTEPI [HSP90AB1_Y512]", 0.527],
  ["GESLTYASTTF [C1orf162_Y120]", 0.5],
  ["HSLRDYKEALM [ADA2_Y337_H335R]", 0.775],
  ["EKEQNYDLTEV [ECD_Y448]", 0.569],
  ["QRIYQYIRSRF [DYRK1B_Y273_Q275R]", 0.9]
]}

Entry LGSNGYKKLLK [SEPSECS_Y334] has what phosphorylation enrichment? 0.42

====

Test system: AncSZ
assay.explanation: phosphorylation enrichment, bacterial display (enrichment ratio); higher = better substrate or ligand; peptides without Tyr show the background
Returns Met if the recorded phosphorylation enrichment is greater than or equal to 1, and Not met otherwise.

{"columns": ["entry.sequence", "category"],
 "data": [
  ["KKKKQYKDKYL [CASK_Y708]", "Not met"],
  ["EVEPRYVVLYD [ERCC4_Y577]", "Met"],
  ["GNFSGYDDAWD [POLR1C_Y36_YF]", "Met"]
]}

Record AAGGRYYGLVG [HARS1_Y363_D364Y] ; criterion: phosphorylation enrichment no lower than 1. Met? Not met

Is it the case that GGCQEYTGAPY [NAXD_Y85] has phosphorylation enrichment reaching or exceeding 1? Met

Does phosphorylation enrichment meet or surpass 1 for CTTIHSNYMCN [TP53_Y234_Y234S] ? Not met

Determine whether this sequence has phosphorylation enrichment no lower than 1: VAFLFYKSIGP [ADGRL4_Y302_V300L_YF] Met

Hello, I need to know if HICTAYELVLA [DHCR24_Y190] has measured phosphorylation enrichment not below 1. Thanks! Met

Would you say GFSDPYVKASL [SYT3_Y470] shows phosphorylation enrichment at minimum 1? Not met

Tell me whether phosphorylation enrichment is at least 1 here: ALEQKYWALGQ [MAP1A_Y1555] Not met

Threshold query (phosphorylation enrichment >= 1) on VGNPAYRSFSN [IL4R_Y497_A492V] Not met

Reported phosphorylation enrichment reaches at least 1 for LHQSTYQCYDV [SLC7A14_Y693_R695C] ? Met

====

phosphorylation enrichment overview
System: Fer (mouse)
assay.explanation: phosphorylation enrichment, bacterial display (enrichment ratio); higher = better substrate or ligand; peptides without Tyr show the background
Please give only the number in your answer, with no unit.

In the examples that follow, each entry is paired with its recorded phosphorylation enrichment.
{"columns": ["entry.sequence", "phosphorylation enrichment"],
 "data": [
  ["VVFIKYLPEWT [PSEN1_Y240_L235V]", 0.538],
  ["MPPHIYAITDT [MYH9_Y151]", 0.679],
  ["ETKEDYEKILV [ANXA1_Y335_G333E]", 0.598]
]}

What measured phosphorylation enrichment goes with GKLIFYDLRGE [KARS1_Y145] ? 0.432

What value of phosphorylation enrichment has been reported for the following sequence? CNRADYSKLAP [GNE_Y22] 0.485

====

target.or.test.system: EPHB2 (UniProt P29323)
Sequence (P29323 whole entry, looked up): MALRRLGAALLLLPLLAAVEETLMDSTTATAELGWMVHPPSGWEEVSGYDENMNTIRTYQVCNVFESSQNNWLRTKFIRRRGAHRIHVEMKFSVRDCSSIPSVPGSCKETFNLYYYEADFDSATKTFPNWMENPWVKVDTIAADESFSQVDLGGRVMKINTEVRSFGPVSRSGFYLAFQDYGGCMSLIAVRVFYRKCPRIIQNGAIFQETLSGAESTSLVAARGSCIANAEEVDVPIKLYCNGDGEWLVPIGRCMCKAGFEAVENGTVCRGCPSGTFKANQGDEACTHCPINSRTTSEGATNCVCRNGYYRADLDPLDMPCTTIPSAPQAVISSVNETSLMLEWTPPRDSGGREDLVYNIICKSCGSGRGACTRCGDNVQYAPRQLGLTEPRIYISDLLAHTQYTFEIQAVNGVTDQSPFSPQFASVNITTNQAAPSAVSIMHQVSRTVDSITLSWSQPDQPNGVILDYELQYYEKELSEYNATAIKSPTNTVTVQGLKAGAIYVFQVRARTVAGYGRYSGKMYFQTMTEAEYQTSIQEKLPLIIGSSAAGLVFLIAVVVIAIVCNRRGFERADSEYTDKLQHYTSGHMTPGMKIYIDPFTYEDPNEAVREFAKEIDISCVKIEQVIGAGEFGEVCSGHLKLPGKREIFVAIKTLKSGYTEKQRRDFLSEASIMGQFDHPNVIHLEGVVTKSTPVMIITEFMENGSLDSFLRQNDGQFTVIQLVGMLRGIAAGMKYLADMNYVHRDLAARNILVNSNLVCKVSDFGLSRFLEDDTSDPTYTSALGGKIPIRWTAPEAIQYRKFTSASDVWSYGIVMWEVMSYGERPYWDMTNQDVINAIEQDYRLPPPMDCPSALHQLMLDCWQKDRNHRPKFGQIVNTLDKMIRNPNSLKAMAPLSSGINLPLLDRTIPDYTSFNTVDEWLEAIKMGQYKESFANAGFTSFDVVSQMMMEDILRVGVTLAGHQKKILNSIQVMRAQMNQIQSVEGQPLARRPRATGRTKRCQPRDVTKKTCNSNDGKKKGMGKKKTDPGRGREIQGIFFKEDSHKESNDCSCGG
assay.explanation: phosphorylation enrichment, bacterial display (enrichment ratio); higher = better substrate or ligand; peptides without Tyr show the background
Use phosphorylation enrichment to assign classes; range list: A (below 0.5), B (0.5 to below 0.6), C (0.6 or more)

Worked examples follow.
{"columns": ["entry.sequence", "category"],
 "data": [
  ["PLLEFYWDIFT [CDAN1_Y713_R714W_YF]", "C"],
  ["DDLTDYLMKIL [ACTA1_Y190_R185D]", "B"]
]}

Quick check: band for LYSDHYSPSGR [TMPRSS12_Y23] C

Given FSCLPYRRLAY [SLC52A2_Y305_G306R] , name the class its phosphorylation enrichment places it in. B

Note: place this sequence into its band. Item: VFSIDYFRVGG [NTRK2_Y706_T704I_YF] B

# bin label for ASMAKYYASGI [ACADSB_Y372_E376G] B

Category of FDEFRYRSFIK [CFTR_Y517_V520F_YF] : A

Field: class (phosphorylation enrichment) — entry: KKKKQYKDKYL [CASK_Y708] A

Band assignment needed for NTEGGYRCICA [CRELD1_Y328] please. C

Which band does EKKDIYKAGEQ [CFH_Y1008_V1007I] fall in? A

Field: class (phosphorylation enrichment) — entry: QHVPDYRQNGY [PCDHGA1_Y890_V894G] B

Note: place this sequence into its band. Item: CNSFQYGGGGG [NPPA_Y151_R150Q] A

Which class does WIPIQYLIISE [NOG_Y222_P223L] fall in? C

Form field 'band' for VVQGLYKSMPK [KBTBD2_Y250] A

Form field 'band' for HFVDEYDLTIE [KRAS_Y32_P34L] A

For EEGESYVCSSD [DCX_Y125] , which phosphorylation enrichment bin applies? C

====

target.or.test.system: FGFR1 (UniProt P11362)
Sequence (P11362 whole entry, looked up): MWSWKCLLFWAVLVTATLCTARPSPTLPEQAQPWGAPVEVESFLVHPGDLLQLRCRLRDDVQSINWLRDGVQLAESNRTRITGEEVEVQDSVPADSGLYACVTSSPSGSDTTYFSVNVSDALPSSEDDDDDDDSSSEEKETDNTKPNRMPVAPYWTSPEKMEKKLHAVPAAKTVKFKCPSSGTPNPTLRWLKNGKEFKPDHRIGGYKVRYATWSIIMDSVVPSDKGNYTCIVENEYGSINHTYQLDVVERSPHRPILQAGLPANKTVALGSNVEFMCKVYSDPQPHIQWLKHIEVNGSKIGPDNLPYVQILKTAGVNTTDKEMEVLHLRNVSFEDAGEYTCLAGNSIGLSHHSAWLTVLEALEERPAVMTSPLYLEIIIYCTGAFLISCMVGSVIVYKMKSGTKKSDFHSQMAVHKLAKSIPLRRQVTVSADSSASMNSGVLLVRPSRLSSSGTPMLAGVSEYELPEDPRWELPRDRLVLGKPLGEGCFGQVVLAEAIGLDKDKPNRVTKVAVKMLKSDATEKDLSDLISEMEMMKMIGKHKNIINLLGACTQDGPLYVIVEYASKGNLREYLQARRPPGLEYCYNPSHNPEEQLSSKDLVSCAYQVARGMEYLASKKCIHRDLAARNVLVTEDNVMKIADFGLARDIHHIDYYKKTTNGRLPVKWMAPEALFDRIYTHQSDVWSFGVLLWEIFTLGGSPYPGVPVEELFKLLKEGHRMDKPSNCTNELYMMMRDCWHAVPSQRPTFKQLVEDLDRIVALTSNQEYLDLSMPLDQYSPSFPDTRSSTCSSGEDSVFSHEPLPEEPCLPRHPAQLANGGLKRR
assay.explanation: phosphorylation enrichment, bacterial display (enrichment ratio); higher = better substrate or ligand; peptides without Tyr show the background
measured.property: phosphorylation enrichment

Example cases with answers are listed next.
{"columns": ["entry.sequence", "target.or.test.system", "measured.property", "result"],
 "data": [
  ["FQQLFYLLQTN [IQGAP2_Y890_YF]", "FGFR1 (UniProt P11362)", "phosphorylation enrichment", 0.514],
  ["EAESWYQTKFE [KRT75_Y342_YF]", "FGFR1 (UniProt P11362)", "phosphorylation enrichment", 0.49],
  ["ANNEYYFQVCA", "FGFR1 (UniProt P11362)", "phosphorylation enrichment", 8.62],
  ["VSNFNYFFHRE [KCNA1_Y413_YF]", "FGFR1 (UniProt P11362)", "phosphorylation enrichment", 0.685],
  ["RRLEPYGENFN [APOA4_Y310_V307L]", "FGFR1 (UniProt P11362)", "phosphorylation enrichment", 0.266]
]}

# phosphorylation enrichment lookup, item SQKRKYIEIDS [SDAD1_Y580] 0.463

Quick one: phosphorylation enrichment for PLEGEYFTLQI [TP53_Y327_D324E] ? 18.5

====

target.or.test.system: Fes (UniProt P07332)
Sequence (P07332 whole entry, looked up): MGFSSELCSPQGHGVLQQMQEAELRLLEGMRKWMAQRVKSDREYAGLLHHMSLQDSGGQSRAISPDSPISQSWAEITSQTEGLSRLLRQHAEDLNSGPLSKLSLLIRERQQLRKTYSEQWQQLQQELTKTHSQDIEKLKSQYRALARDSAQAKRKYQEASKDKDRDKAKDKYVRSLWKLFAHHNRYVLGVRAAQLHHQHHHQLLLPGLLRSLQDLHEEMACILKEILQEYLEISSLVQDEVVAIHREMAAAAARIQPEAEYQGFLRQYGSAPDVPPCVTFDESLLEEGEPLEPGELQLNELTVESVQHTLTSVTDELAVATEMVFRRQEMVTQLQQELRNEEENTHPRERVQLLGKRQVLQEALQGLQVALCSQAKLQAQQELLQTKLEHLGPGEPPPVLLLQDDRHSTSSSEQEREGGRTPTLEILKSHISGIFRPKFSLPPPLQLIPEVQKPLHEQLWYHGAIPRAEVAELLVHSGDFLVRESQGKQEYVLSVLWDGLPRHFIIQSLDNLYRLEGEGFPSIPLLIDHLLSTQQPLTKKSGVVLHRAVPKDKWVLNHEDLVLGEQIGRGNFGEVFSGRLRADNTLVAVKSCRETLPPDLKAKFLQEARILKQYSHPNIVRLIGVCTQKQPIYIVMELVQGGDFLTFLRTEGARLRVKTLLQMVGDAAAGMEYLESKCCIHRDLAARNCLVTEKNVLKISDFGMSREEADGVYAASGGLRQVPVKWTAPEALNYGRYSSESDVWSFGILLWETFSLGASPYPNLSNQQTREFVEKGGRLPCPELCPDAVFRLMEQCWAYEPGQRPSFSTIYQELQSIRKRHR
assay.explanation: phosphorylation enrichment, bacterial display (enrichment ratio); higher = better substrate or ligand; peptides without Tyr show the background
measured.property: phosphorylation enrichment
Quick one: just the number, no unit, thanks!

{"columns": ["entry.sequence", "phosphorylation enrichment"],
 "data": [
  ["NACGLYHTMNG [GATA5_Y216_K218T]", 0.95],
  ["TTKAKYKTPTY [PLD2_Y573]", 0.501]
]}

Field request: phosphorylation enrichment | item: IVRSRYEDLED [VHL_Y185_L184R] 0.946

Item AGAKTYKMSMA [CPS1_Y309] has what recorded phosphorylation enrichment? 0.405

Could you tell me which phosphorylation enrichment is on file for RKEAQYMLENE [SLC16A6_Y224] ? 1.32

What does the data say about its phosphorylation enrichment? Entry: PQGVRYIYTID [DCX_Y103] 5.16

Need phosphorylation enrichment of FVHDNYVIWRT [CPS1_Y1450_R1453W] , thanks. 1.16

Need phosphorylation enrichment of IKKLIYVYLVI [JAGN1_Y42_H44Y] , thanks. 0.97

Any idea what its phosphorylation enrichment is? The sequence is GMTLSYLFREP [NDUFS8_Y74] 0.877

Any idea what phosphorylation enrichment was measured for SAGSSYSISSI [PAX5_Y179_G183S] ? 0.686

Any idea what phosphorylation enrichment was measured for VFAADYFKLLG [ROR2_Y645_YF] ? 0.643

Looking for the measured phosphorylation enrichment of IFCIQYNIRAF [MYH4_Y820] , can you help? 1.76

Which phosphorylation enrichment value belongs to SIRFNYLLDVL [FGFR4_Y237_YF] ? 1.14

# query: phosphorylation enrichment of entry KDQGTYEDFVE [MYL6_Y86_YF] 2.32

Data credit: the supplement of paper PMC10065799
